The entries below are paired with their reported growth.
# Tested on: E. coli TESEC Mtb Alr
# methodSummary: growth (OD600 after 10 h); higher = more growth (less inhibition)
# conditionsUsed: arabinose 10000000 nM; compound 0.1 mM; raw OD600 reference: median of DMSO wells […], cell-free background 0.052
measurementLabel: growth

# molecule, measured
records = [
    ("C=CC1=C(C(=O)O)N2C(=O)[C@@H](NC(=O)/C(=N\\OCC(=O)O)c3csc(N)n3)[C@H]2SC1", 0.054),
    ("O=C1CCc2cc(OCCCCc3nnnn3C3CCCCC3)ccc2N1", 0.145),
    ("O=C(N/N=C/c1ccc([N+](=O)[O-])o1)c1ccc(O)cc1 [Nifuroxazide]", 0.0578),
]

---

# Test system: E. coli TESEC Mtb Alr
# methodSummary: growth (OD600 after 10 h); higher = more growth (less inhibition)
# conditionsUsed: arabinose 100000 nM; compound 0.1 mM; raw OD600 reference: median of DMSO wells 0.201, cell-free background 0.041
Counter-ions that a name gives are not always drawn.
Short version: growth at least 0.2 is satisfied, less is not satisfied.

# compound, group
measured = [
    ("CCOC(=O)/C=C(C)/C=C/C=C(C)/C=C/c1c(C)cc(OC)c(C)c1C [Etretinate]", "satisfied"),
    ("OCC(O)CN1CCN(c2ccccc2)CC1 (racemic) [Dropropizine (R,S)]", "satisfied"),
    ("CC[N+](C)(C)Cc1ccccc1Br [Bretylium tosylate]", "satisfied"),
    ("N=C(N)NC(=O)c1nc(Cl)c(N)nc1N [Amiloride hydrochloride dihydrate]", "satisfied"),
    ("OC(CCN1CCCCC1)(c1ccccc1)c1ccccc1 [Pridinol methanesulfonate salt]", "not satisfied"),
    ("CC(CN(C)C)CN1c2ccccc2CCc2ccccc21 (configuration not stated) [Trimipramine maleate salt]", "not satisfied"),
    ("CC1(C)[C@H](C(=O)O)N2C(=O)C[C@H]2S1(=O)=O", "satisfied"),
    ("CN(CCCCCCCCCCN(C)C(=O)Oc1cccc([N+](C)(C)C)c1)C(=O)Oc1cccc([N+](C)(C)C)c1 [Demecarium bromide]", "not satisfied"),
    ("CCCCC(CC)CN1CN(CC(CC)CCCC)CC(C)(N)C1 (configuration not stated)", "satisfied"),
    ("CC(C)(C)c1ccc(C(O)CCCN2CCC(C(O)(c3ccccc3)c3ccccc3)CC2)cc1 (configuration not stated)", "not satisfied"),
    ("CCCNC(C)(C)COC(=O)c1ccccc1 [Meprylcaine hydrochloride]", "satisfied"),
    ("COc1cc(C(=O)OCCCN2CCCN(CCCOC(=O)c3cc(OC)c(OC)c(OC)c3)CC2)cc(OC)c1OC [Dilazep dihydrochloride]", "not satisfied"),
    ("CC(=O)OCC(CCn1cnc2cnc(N)nc21)COC(C)=O", "not satisfied"),
    ("NC(=O)N/N=C/c1ccc([N+](=O)[O-])o1", "not satisfied"),
]

---

# Tested on: E. coli TESEC Alr+ wild-type control
# methodSummary: growth (OD600 after 10 h); higher = more growth (less inhibition)
# conditionsUsed: compound 0.1 mM; raw OD600 reference: median of DMSO wells 0.49, cell-free background 0.052
Where a name gives a salt, the structure may show the parent alone.
Short version: growth at least 0.4 is true, less is false.

# compound, studyTarget, group
rows = [
    ("CC(C(=O)O)c1ccc(N2Cc3ccccc3C2=O)cc1 (stereo unspecified)", "E. coli TESEC Alr+ wild-type control", "true"),
    ("C=C1C(=O)O[C@H]2[C@H]1CC/C(C)=C/CC[C@@]1(C)O[C@@H]21 [Parthenolide]", "E. coli TESEC Alr+ wild-type control", "true"),
    ("COc1ccccc1O", "E. coli TESEC Alr+ wild-type control", "true"),
    ("NS(=O)(=O)Cc1noc2ccccc12 [Zonisamide]", "E. coli TESEC Alr+ wild-type control", "true"),
    ("CCc1cccc2c3c([nH]c12)C(CC)(CC(=O)O)OCC3 (stereo unspecified)", "E. coli TESEC Alr+ wild-type control", "true"),
    ("NCCc1c[nH]cn1 [Histamine dihydrochloride]", "E. coli TESEC Alr+ wild-type control", "true"),
    ("C/C(=C(\\CCOP(=O)(O)O)SC(=O)c1ccccc1)N(C=O)Cc1cnc(C)nc1N", "E. coli TESEC Alr+ wild-type control", "true"),
    ("Clc1cc(Cl)c(OCC#CI)cc1Cl", "E. coli TESEC Alr+ wild-type control", "false"),
    ("C[C@]12CC[C@@H]3c4ccc(O)cc4C[C@@H](CCCCCCCCC[S+]([O-])CCCC(F)(F)C(F)(F)F)[C@H]3[C@@H]1CC[C@@H]2O (stereo partly specified)", "E. coli TESEC Alr+ wild-type control", "true"),
    ("CCN(CC)CCCC(C)Nc1ccnc2cc(Cl)ccc12 (stereo unspecified) [Chloroquine diphosphate]", "E. coli TESEC Alr+ wild-type control", "true"),
    ("CCN(CC)CCOc1ccc(C(=C(Cl)c2ccccc2)c2ccccc2)cc1 [Clomiphene citrate (Z,E)]", "E. coli TESEC Alr+ wild-type control", "false"),
    ("C[N+]1(CCCCC[N+]2(C)CCCC2)CCCC1 [Pentolinium bitartrate]", "E. coli TESEC Alr+ wild-type control", "true"),
    ("COCC(=O)Nc1c(I)c(C(=O)NCC(O)CO)c(I)c(C(=O)N(C)CC(O)CO)c1I (stereo unspecified) [Iopromide]", "E. coli TESEC Alr+ wild-type control", "true"),
    ("C#CCN[C@@H]1CCc2ccccc21", "E. coli TESEC Alr+ wild-type control", "true"),
    ("CO[C@@]1(NC(=O)CSCC#N)C(=O)N2C(C(=O)O)=C(CSc3nnnn3C)CS[C@@H]21 [Cefmetazole sodium salt]", "E. coli TESEC Alr+ wild-type control", "false"),
    ("O=C1CN(/N=C/c2ccc([N+](=O)[O-])o2)C(=O)N1", "E. coli TESEC Alr+ wild-type control", "false"),
    ("CC(CCc1ccc(O)cc1)NCCc1ccc(O)c(O)c1 (stereo unspecified) [Dobutamine hydrochloride]", "E. coli TESEC Alr+ wild-type control", "true"),
    ("CC(C)c1c(C(=O)Nc2ccccc2)c(-c2ccccc2)c(-c2ccc(F)cc2)n1CC[C@@H](O)C[C@@H](O)CC(=O)O", "E. coli TESEC Alr+ wild-type control", "false"),
    ("CCCc1ncc(C[n+]2ccccc2C)c(N)n1 [Amprolium hydrochloride]", "E. coli TESEC Alr+ wild-type control", "true"),
    ("CC1(C)O[C@@H]2C[C@H]3[C@@H]4C[C@H](F)C5=CC(=O)C=C[C@]5(C)[C@H]4[C@@H](O)C[C@]3(C)[C@]2(C(=O)CO)O1 [Flunisolide]", "E. coli TESEC Alr+ wild-type control", "true"),
    ("C=CC(N)CCC(=O)O (stereo unspecified)", "E. coli TESEC Alr+ wild-type control", "true"),
    ("C/C=C(/C(=C/C)c1ccc(O)cc1)c1ccc(O)cc1", "E. coli TESEC Alr+ wild-type control", "false"),
    ("CC(C)(C#N)c1cc(Cn2cncn2)cc(C(C)(C)C#N)c1", "E. coli TESEC Alr+ wild-type control", "true"),
    ("CN1CCC(=C2c3ccccc3CCc3sccc32)CC1 [Pizotifen malate]", "E. coli TESEC Alr+ wild-type control", "false"),
    ("CCN(CC)CCNC(=O)c1cc(S(C)(=O)=O)ccc1OC [Tiapride hydrochloride]", "E. coli TESEC Alr+ wild-type control", "true"),
    ("CC1CNc2c(cccc2S(=O)(=O)N[C@@H](CCCNC(=N)N)C(=O)N2CC[C@@H](C)C[C@@H]2C(=O)O)C1 (stereo partly specified)", "E. coli TESEC Alr+ wild-type control", "true"),
]

---

# System: E. coli TESEC Mtb DapB
# methodSummary: growth (OD600 after 10 h); higher = more growth (less inhibition)
# conditionsUsed: arabinose induction (level): Low; compound 0.1 mM; raw OD600 reference: median of DMSO wells 0.227, cell-free background 0.041
Counter-ions that a name gives are not always drawn.
The entries below are paired with their reported growth.

# compound, studyTarget, growth
records = [
    ("CC(N/C(=N\\C#N)Nc1ccncc1)C(C)(C)C (centres undefined)", "E. coli TESEC Mtb DapB", 0.232),
    ("COc1ccccc1N1CCN(CC(O)COc2cccc3ccccc23)CC1 (centres undefined) [Naftopidil dihydrochloride]", "E. coli TESEC Mtb DapB", 0.0626),
    ("Cc1c(N)c(=O)n(-c2ccccc2)n1C", "E. coli TESEC Mtb DapB", 0.209),
    ("CN1CCN(CCCN2c3ccccc3Sc3ccc(S(=O)(=O)N(C)C)cc32)CC1 [Thioproperazine dimesylate]", "E. coli TESEC Mtb DapB", 0.249),
    ("OC(CCN1CCCCC1)(c1ccccc1)C1CCCCC1 (centres undefined) [Trihexyphenidyl-D,L Hydrochloride]", "E. coli TESEC Mtb DapB", 0.22),
    ("Cc1onc(-c2ccccc2)c1-c1ccc(S(N)(=O)=O)cc1", "E. coli TESEC Mtb DapB", 0.229),
    ("Nc1ccc(S(N)(=O)=O)cc1 [Sulfanilamide]", "E. coli TESEC Mtb DapB", 0.263),
    ("CCN(CCCc1ccccc1)CCCc1ccccc1 [Alverine citrate salt]", "E. coli TESEC Mtb DapB", 0.205),
    ("CC(=O)[C@H]1CC[C@H]2[C@@H]3CC=C4C[C@@H](O)CC[C@]4(C)[C@H]3CC[C@]12C", "E. coli TESEC Mtb DapB", 0.184),
    ("O=C(c1ccc(F)cc1)C1CCN(CCn2c(=O)[nH]c3ccccc3c2=O)CC1 [Ketanserin tartrate hydrate]", "E. coli TESEC Mtb DapB", 0.251),
    ("CCOC(=O)C1=C[C@]2(CC)CCCN3CCc4c(n1c1ccccc41)[C@@H]32", "E. coli TESEC Mtb DapB", 0.191),
    ("C[C@](N)(Cc1ccc(O)c(O)c1)C(=O)O", "E. coli TESEC Mtb DapB", 0.226),
    ("NS(=O)(=O)c1cc(Cl)c(Cl)c(S(N)(=O)=O)c1 [Dichlorphenamide]", "E. coli TESEC Mtb DapB", 0.256),
    ("CC(=O)N(CC(O)CN(C(C)=O)c1c(I)c(C(=O)NCC(O)CO)c(I)c(C(=O)NCC(O)CO)c1I)c1c(I)c(C(=O)NCC(O)CO)c(I)c(C(=O)NCC(O)CO)c1I (centres undefined)", "E. coli TESEC Mtb DapB", 0.215),
]

# credit: the supplement of paper PMC9262897
